# Tested on: CP329
# assay_summary: qHTS profiling for inhibitors of Plasmodium falciparum proliferation (AID 504749); also: nearly all actives have a fitted effect of over 60% in size
# condition_description: P. falciparum in erythrocytes, SYBR Green DNA, 72 h; series mostly up to 28.7 µM
Records with an inconclusive call do not appear. Active and inactive are the calls of the source. Calls follow the shape of the dose curve; as a rule, active = well fitted inhibition curve with a large enough effect; inconclusive = small, poorly fitted or top-dose-only effect; inactive = flat fitted curve, though single readings scatter.
Entry note: the call must match one of YES = active, NO = inactive

Some solved entries appear below for comparison.
C=C[C@H]1CN2CCC1C[C@H]2[C@H](O)c1ccnc2ccc(OC)cc12 (some centres not stated) = YES
Cc1c(C)c2c(c(C)c1O)CCC(C)(CCCC(C)CCCC(C)CCCC(C)C)O2 (configuration not stated) = NO
C[C@@H]1C(SC2Cn3cnc[n+]3C2)=C(C(=O)[O-])N2C(=O)[C@H]([C@@H](C)O)[C@@H]12 (some centres not stated) = NO

Per the assay record, what outcome was assigned to OCC1O[C@@H](O[C@@H]2C(CO)OC(O)C(O)C2O)C(O)C(O)C1O (some centres not stated) ?
NO

Per the assay record, what outcome was assigned to "C[C@@H](O)[C@@H]1C(=O)N2C(C(=O)O)=C([C@H]3CCCO3)S[C@H]12" ?
NO

Per the assay record, what outcome was assigned to "CC1=C(c2ccc(NN=C(C#N)C#N)cc2)NNC(=O)C1" ?
NO

Per the assay record, what outcome was assigned to "CC[C@@]1(O)C[C@H](O[C@H]2C[C@@H](N(C)C)[C@@H](O[C@H]3C[C@@H](O)[C@@H](O[C@H]4CCC(=O)[C@@H](C)O4)[C@@H](C)O3)[C@@H](C)O2)c2c(cc3c(c2O)C(=O)c2c(O)cccc2C3=O)[C@H]1C(=O)OC" ?
YES

Per the assay record, what outcome was assigned to "CCN(CC)CC(=O)Nc1c(C)cc(C)cc1C" ?
NO

* * *

# System: P94_40
# assay_summary: qHTS profiling for inhibitors of Plasmodium falciparum proliferation (AID 504749); also: nearly all actives have a fitted effect of over 60% in size
# condition_description: P. falciparum in erythrocytes, SYBR Green DNA, 72 h; series mostly up to 28.7 µM
Results filed as inconclusive are left out. Active and inactive are the calls of the source. The call rests on the fitted dose curve; in most records, active means well fitted inhibition curve with a large enough effect; inconclusive means small, poorly fitted or top-dose-only effect; inactive means flat fitted curve, though single readings scatter.
assay_readout: outcome

CCCCC/C(C=O)=C/c1ccccc1 = inactive
CO/N=C(/C(=O)N[C@@H]1C(=O)N2C(C(=O)O)=C(CSC(=O)c3ccco3)CSC12)c1csc(N)n1 (stereo not given in full) = inactive
O=C(OC[C@@H]1O[C@@](O)(COC(=O)c2cccnc2)[C@H](OC(=O)c2cccnc2)[C@H]1OC(=O)c1cccnc1)c1cccnc1 = inactive
Cn1cc(C(=O)[C@@H]2CCc3[nH]cnc3C2)c2ccccc21 = inactive

The record that follows has no outcome shown yet.
Could you tell me which outcome is on file for "Cc1cnc(C(=O)O)cn1" ?
inactive

* * *

# Tested on: Dd2
# assay_summary: qHTS profiling for inhibitors of Plasmodium falciparum proliferation (AID 504749); also: nearly all actives have a fitted effect of over 60% in size
# condition_description: P. falciparum in erythrocytes, SYBR Green DNA, 72 h; series mostly up to 28.7 µM
Inconclusive results are not listed. Calls of active or inactive are those of the source. Calls come from the whole dose curve; as a rule, active = well fitted inhibition curve with a large enough effect; inconclusive = small, poorly fitted or top-dose-only effect; inactive = flat fitted curve, though single readings scatter.
Entry note: the call must match one of active, inactive

Per the assay record, what outcome was assigned to CC(=O)OCC(=O)[C@@]1(O)CCC2C3C[C@H](C)C4=CC(=O)C=CC4(C)C3C(O)CC21C (stereo not given in full) ?
inactive

Per the assay record, what outcome was assigned to CN1[C@@H]2CC[C@@H]1CC(OC(=O)[C@H](CO)c1ccccc1)C2 (stereo not given in full) ?
inactive

Per the assay record, what outcome was assigned to "CC(C)(C)NC[C@H](O)CSc1nc(-c2ccc(C(N)=O)s2)cs1" ?
inactive

Per the assay record, what outcome was assigned to "CNC1=CN(O)C(c2ccccc2)=c2cc(Cl)ccc2=N1" ?
inactive

Per the assay record, what outcome was assigned to CC(O)C(N)C(=O)O (stereo not given) ?
inactive

* * *

# assay_summary: MultiTox-Fluor Cytotoxicity Assay - LYMP1-001 - Dead Cells (AID 946);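 also: cells exposed to compound for 16 h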
# condition_description: LYMP1-001 lymphoblastoid cells, dead-cell protease fluorescence; series mostly up to 92.2 µM
# Text: NIH Chemical Genomics Center [NCGC] NIH Molecular Libraries Screening Centers Network [MLSCN] National Institutes of Environmental Health Sciences [NIEHS] National Toxicology Program [NTP] We have developed a 1536-well cell-based assay for quantitative high throughput screening (qHTS) against a number of cell lines to determine in vitro cytotoxicity of small molecules. […] 8. Detection; dead-cell fluorescence (Ex/Em=485/520); EnVision plate reader […]
Results filed as inconclusive are left out. Activity calls are given as the source filed them. Calls follow the shape of the dose curve; as a rule, active = well fitted cell-killing curve with a large enough effect; inconclusive = small, poorly fitted or top-dose-only effect, or effect the other way; inactive = flat fitted curve, though single readings scatter.
Entry note: the call must match one of true (active), false (inactive)

Per the assay record, what outcome was assigned to "C=C(C)c1ccccc1" ?
false

Per the assay record, what outcome was assigned to "CC(=O)Nc1ccc(C(=O)CCl)cc1" ?
true

Per the assay record, what outcome was assigned to "Cc1cc(Nc2ccc(O)cc2)ccc1N" ?
false

Per the assay record, what outcome was assigned to "O=Cc1ccc(Cl)c(Cl)c1" ?
false

Per the assay record, what outcome was assigned to "CCCCCCCC[N+](CCCCCCCC)(CCCCCCCC)CCCCCCCC" ?
true

Per the assay record, what outcome was assigned to "O=C=Nc1ccc(Cc2ccc(N=C=O)cc2)cc1" ?
false

Per the assay record, what outcome was assigned to "CN(C)c1ccc(C2(c3ccc(N(C)C)cc3)OC(=O)c3cc(N(C)C)ccc32)cc1" ?
false

Per the assay record, what outcome was assigned to "O=[N+]([O-])c1cc([N+](=O)[O-])c2ccc(S(=O)(=O)O)cc2c1O" ?
false

Per the assay record, what outcome was assigned to "Cc1ccc(S(=O)(=O)Oc2ccc(N=Nc3ccc(-c4ccc(N=Nc5c(O)ccc6cc(S(=O)(=O)O)cc(S(=O)(=O)O)c56)c(C)c4)cc3C)cc2)cc1" ?
false

Per the assay record, what outcome was assigned to O=C(/C=C/c1ccc(O)c(O)c1)OC1C[C@](O)(C(=O)O)C[C@@H](O)[C@H]1O (stereo partly drawn) ?
false

Per the assay record, what outcome was assigned to "O=C(OCC(COC(=O)c1ccccc1)(COC(=O)c1ccccc1)COC(=O)c1ccccc1)c1ccccc1" ?
false

Per the assay record, what outcome was assigned to "C/C=C1\C(=O)C[C@H]2[C@@H]3CCC4=CC(=O)CC[C@]4(C)[C@H]3CC[C@]12C" ?
true

* * *

# assay_summary: Stat Signaling Pathway (AID 446);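 also: ME-180 cervical cancer cells given 40 pM IL-6 alongside compound; SIE-controlled beta-lactamase reporter measured as 460/530 nm FRET emission ratio; % is scaled to controls: 0 for no effect and ±100 for the full control effect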
# condition_description: ME-180 (cervical carcinoma) SIE beta-lactamase reporter, IL-6 stimulated, 5 h; at 17.2 µM (top of the series) unless noted
Inconclusive results are not listed.
activity, negative = inhibition values for the molecules below.
Give the value in % but do not write % after it.

Some entries whose results are on file:
CCCOc1cc(CN2CCCCC2)cc(C(C)=O)c1 = 7.32
c1ccc2c(c1)[nH]c1c(N3CCSCC3)ncnc12 = -18.7
C=CCNc1nc(N2CCOCC2)c(C#N)c2c1CN(C)CC2 = 2.07
c1ccc(-n2ncc3c(NCC4CCCO4)ncnc32)cc1 (stereo unspecified) = 2.07

Could you tell me which activity, negative = inhibition is on file for "COC(=O)c1cc(Br)c(=O)n(-c2nccs2)c1" ?
2.73

Could you tell me which activity, negative = inhibition is on file for COCCCNc1nc2c(c(=O)[nH]c(=O)n2C)n1CC(O)COc1ccccc1 (stereo unspecified) ?
-9.93

* * *

# System: CP252
# assay_summary: qHTS profiling for inhibitors of Plasmodium falciparum proliferation (AID 504749); also: nearly all actives have a fitted effect of over 60% in size
# condition_description: P. falciparum in erythrocytes, SYBR Green DNA, 72 h; series mostly up to 28.7 µM
Records with an inconclusive call do not appear. Active and inactive are the calls of the source. Calls follow the shape of the dose curve; as a rule, active = well fitted inhibition curve with a large enough effect; inconclusive = small, poorly fitted or top-dose-only effect; inactive = flat fitted curve, though single readings scatter.
Entry note: the call must match one of 1.0 = active, 0.0 = inactive

Per the assay record, what outcome was assigned to CCC(C)C(N)C(=O)O (stereo unspecified) ?
0.0

Per the assay record, what outcome was assigned to COc1cc2c(cc1O)CCN[C@@]21CS[C@H]2c3c(OC(C)=O)c(C)c4c(c3C(COC1=O)N1C2C2c3c(cc(C)c(OC)c3O)CC([C@@H]1O)N2C)OCO4 (stereo partly specified) ?
1.0

Per the assay record, what outcome was assigned to CC1(C)SC2[C@@H](N=CN3CCCCCC3)C(=O)N2[C@H]1C(=O)O (stereo partly specified) ?
0.0

Per the assay record, what outcome was assigned to "C[S+](C)CC[C@H](N)C(=O)O" ?
0.0

Per the assay record, what outcome was assigned to "Cc1ccccc1N1C(=O)c2cc(N)ccc2N/C1=C\F" ?
0.0

Per the assay record, what outcome was assigned to CC1CCC(O)C/C1=C\C=C1/CCCC2(C)C1CCC2C(C)/C=C/C(C)C(C)C (stereo unspecified) ?
0.0

Per the assay record, what outcome was assigned to CNC(=O)C(N)CSC(C)C1=C(C)c2cc3[n-]c(cc4nc(cc5[n-]c(cc1n2)c(C)c5CCC(=O)O)C(CCC(=O)O)=C4C)c(C)c3C(C)SCC(N)C(=O)NC.[Fe+2] (stereo unspecified) ?
0.0

Per the assay record, what outcome was assigned to "O=C1[C@@H]2C[C@@H]3C[C@H]1C[C@@](O)(C3)C2" ?
0.0

Per the assay record, what outcome was assigned to COc1cccc2c1C(=O)c1c(O)c3c(c(O)c1C2=O)C[C@@](O)(C(=O)CO)C[C@@H]3OC1CC(N)C(O)C(C)O1 (stereo partly specified) ?
1.0

Per the assay record, what outcome was assigned to Cc1cc2nc3c(=O)[nH]c(=O)nc-3n(CC(O)C(O)C(O)COP(=O)(O)O)c2cc1C (stereo unspecified) ?
0.0

Per the assay record, what outcome was assigned to "CCN(CC)C(=O)[C@@]1(c2ccccc2)C[C@@H]1CN" ?
0.0
